System: pERK in MKN1 cells
Test: Inhibition of KRas phosphorylation of ERK (Cisbio HTRF pERK assay)
Details: Homo sapiens, MKN-1, 3 h, read-out: Inhibition (HTRF IC50) of KRas-mediated Phosphorylation of ERK, MKN1
Quantity: log10 of IC50 (log10 of the value in nM)
Note the log scale: values are log10 of IC50 expressed in nM.

# count of solved cases: 5
Compound	log10 of IC50
CCc1c(F)ccc2cc(O)cc(-c3ncc4c(N5CCC[C@@](C)(O)C5)nc(OC[C@@]56CCCN5[C@H](COC(=O)N(C)C)CC6)nc4c3F)c12	0.48
C#Cc1c(F)ccc2cc(O)cc(-c3ncc4c(N5CCCC6(CNC6=O)C5)nc(OC[C@@]56CCCN5C[C@H](F)C6)nc4c3F)c12 (stereo partly drawn)	2.53
CCc1c(F)ccc2cc(O)cc(-c3ncc4c(N5CCCC6(CCC(O)C6)C5)nc(OC[C@@]56CCCN5C[C@H](F)C6)nc4c3F)c12 (stereo partly drawn)	1.86
CN(C)C(=O)c1cc2n(n1)CCCN(c1nc(OC[C@@]34CCCN3C[C@H](F)C4)nc3c(F)c(-c4cc(O)cc5ccc(F)c(Br)c45)ncc13)C2	1.53
CCc1c(F)ccc2cc(O)cc(-c3ncc4c(N5CCOCC6(CCOCC6)C5)nc(OC[C@@]56CCCN5C[C@H](F)C6)nc4c3F)c12	2.38

Now consider a different compound.
Given the compound CCc1c(F)ccc2cc(O)cc(-c3ncc4c(NCC5CNS(=O)(=O)N5)nc(OC[C@@]56CCCN5C[C@H](F)C6)nc4c3F)c12 (stereo partly drawn) , what is its reported log10 of IC50?
2.13
